Assay Procedure: protein stability index of a GFP-peptide fusion (yeast GPS) (PSI 1-4); higher = more stable; sorted into four equal gates, so the index is relative within each strain
Stated Conditions: san1∆

# Sequence Entry, protein stability index
records = [
    ("GAVSLNPSITRLEEESS [RRP4]", 3.07),
    ("LPDEKSDAMSIDEEDKD [YCG1]", 2.94),
    ("LIERYYPKLTLDFQTNK [RPS17A]", 3.02),
]

----------
Assay Procedure: protein stability index of a GFP-peptide fusion (yeast GPS) (PSI 1-4); higher = more stable; sorted into four equal gates, so the index is relative within each strain
Stated Conditions: san1∆
Collected protein stability index values appear next to each entry.
Value Type: protein stability index

# Sequence Entry, Value Observed
records = [
    ("KNLNPASSSPSSTDFST [ECM29]", 2.97),
    ("AHTPMLQMYSKIRRHPN [FAS1]", 2.96),
    ("IEMYVQEASKQYTKDEQ [RPN2]", 3.06),
    ("IGHLITKEEIMHGLQAK [RPN5]", 2.94),
    ("ESSINTHPHAADGSSYM [SKI6]", 3),
    ("RESFEDNVVRFLNEARD [RPO21]", 3.04),
    ("INKEIFHHWLVEFINKM [SRB8]", 3.03),
    ("TNFNEITNTDETITTKR [SWP82]", 3.08),
    ("TLKIHLKKFLQEKMDPN [IRR1]", 3.08),
    ("RQTGPAKINEVYNNSKD [NSL1]", 2.93),
]
